assay: Half-life in mouse at 3 mg/kg, iv; type: ADME, organism-based; details: in vivo
quantityName: half-life (h)

> print(dat)
                            smilesstructure  unitstext  observedmeasurement
1  Cc1c(Nc2c(F)ccc(NS(=O)(=O)CCCF)c2Cl)ccc2ncn(C)c(=O)c12          h                  1.9

* * *

test: Drug concentration in mouse plasma at 10 mg/kg, po after 2 hrs; type: ADME, organism-based
quantityName: concentration at 2 h (ng/mL)

> print(dat)
                            smilesstructure          quantityname  observedmeasurement
1  Cc1c(Nc2c(F)ccc(NS(=O)(=O)CCCF)c2Cl)ccc2ncn(C)c(=O)c12  concentration at 2 h                11000

* * *

experiment: Protein binding in cynomolgus monkey brain assessed as unbound fraction; type: ADME, tissue-based, Macaca fascicularis
quantityName: fraction unbound

> print(dat)
                            smilesstructure  observedmeasurement
1  Cc1c(Nc2c(F)ccc(NS(=O)(=O)CCCF)c2Cl)ccc2ncn(C)c(=O)c12                0.068

* * *

assay: Substrate activity at P-gp in LLC-PK1 cells assessed as efflux ratio of apparent permeability from basolateral to apical side over apical to basolateral side; format: ADME, cell-based, Sus scrofa; settings: pig
Cut-off 4 on Ratio: below means satisfied, at or above means not satisfied.

> print(dat)
                            smilesstructure            cat
1  COC(=O)N[C@@H](C)CNc1nccc(-c2cn(C(C)C)nc2-c2cc(Cl)cc(NS(C)(=O)=O)c2F)n1  not satisfied
2  CC(C)(C)c1nc(-c2cccc(NS(=O)(=O)c3c(F)cccc3F)c2F)c(-c2ccnc(N)n2)s1  not satisfied
3  CCCS(=O)(=O)Nc1ccc(F)c(Nc2ccc3ncn(CC4CC4)c(=O)c3c2C)c1Cl      satisfied
4  Cc1c(Nc2c(F)ccc(NS(=O)(=O)CC(C)C)c2Cl)ccc2ncn(C)c(=O)c12      satisfied
5  Cc1c(Nc2c(F)ccc(NS(=O)(=O)CC3CC3)c2Cl)ccc2ncn(C)c(=O)c12      satisfied
6  CCCS(=O)(=O)Nc1ccc(F)c(N(C)c2ccc3ncn(C)c(=O)c3c2)c1F      satisfied
7  CCCS(=O)(=O)Nc1ccc(F)c(Nc2ccc3ncn(CC)c(=O)c3c2C)c1Cl      satisfied

* * *

assay: Drug concentration in mouse brain at 10 mg/kg, po after 4 hrs; format: ADME, organism-based; conditions: read-out: Ct
quantityName: concentration at 4 h (ng/g)

> print(dat)
                            smilesstructure          quantityname  observedmeasurement
1  Cc1c(Nc2c(F)ccc(NS(=O)(=O)CCCF)c2Cl)ccc2ncn(C)c(=O)c12  concentration at 4 h                 1600

* * *

experiment: Volume of distribution at steady state in mouse at 3 mg/kg, iv; type: ADME, organism-based; details: in vivo, read-out: Vdss
quantityName: Vd (L/kg)

> print(dat)
                            smilesstructure  observedmeasurement
1  Cc1c(Nc2c(F)ccc(NS(=O)(=O)CCCF)c2Cl)ccc2ncn(C)c(=O)c12                 0.59
